- TEST SYSTEM: Vasopressin V2 receptor (Homo sapiens)
- TEST DETAILS: Agonist activity at human vasopressin V2 receptor expressed in HEK293 cells assessed as increase in intracellular cAMP level by CRE-luciferase reporter gene assay
pEC50: −log10 of the molar value.
VALUE KIND: pEC50

COMPOUND STRUCTURE STRING: Cc1cc(C(=O)N2CCCCc3ccccc32)ccc1CNC(=O)N1CCC[C@H]1C(=O)OC(C)(C)C
pEC50: 6.41
//
COMPOUND STRUCTURE STRING: COc1cc(CNC(=O)Nc2c(F)cccc2F)ccc1C(=O)N1CCCCc2ccccc21
pEC50: 6.96
//
COMPOUND STRUCTURE STRING: Cc1cc(C(=O)N2CCCCc3ccccc32)ccc1CNC(=O)NCC(=O)OC(C)C
pEC50: 6.85
//
COMPOUND STRUCTURE STRING: CCO[C@@H]1C[C@@H](C(=O)N(C)C)N(C(=O)NCc2ccc(C(=O)N3CCCCc4ccccc43)cc2C)C1
pEC50: 8.37
//
COMPOUND STRUCTURE STRING: CCc1cc(C(=O)N2CCCCc3ccccc32)ccc1CNC(=O)Nc1c(F)cccc1F
pEC50: 8.00
//
COMPOUND STRUCTURE STRING: Cc1cc(C(=O)N2CCCCc3ccccc32)ccc1CNC(=O)NCC(=O)N1CCCCC1
pEC50: 6.82

I: Cc1cc(C(=O)N2CCCCc3ccccc32)ccc1CNC(=O)N1C[C@H](O)C[C@H]1C(=O)N(C)C
II: Cc1cc(C(=O)N2CCCCc3ccccc32)ccc1CNC(=O)N1CC(=O)C[C@H]1C(=O)N(C)C
-- ask Could you kindly indicate whether I or II has the higher pEC50 value? Give the chosen item's label as your response.
-- reply I
(I: 8.64, II: 7.57)

----------
- TEST SYSTEM: Vasopressin V2 receptor (Homo sapiens, UniProt P30518)
- Sequence (P30518 whole entry): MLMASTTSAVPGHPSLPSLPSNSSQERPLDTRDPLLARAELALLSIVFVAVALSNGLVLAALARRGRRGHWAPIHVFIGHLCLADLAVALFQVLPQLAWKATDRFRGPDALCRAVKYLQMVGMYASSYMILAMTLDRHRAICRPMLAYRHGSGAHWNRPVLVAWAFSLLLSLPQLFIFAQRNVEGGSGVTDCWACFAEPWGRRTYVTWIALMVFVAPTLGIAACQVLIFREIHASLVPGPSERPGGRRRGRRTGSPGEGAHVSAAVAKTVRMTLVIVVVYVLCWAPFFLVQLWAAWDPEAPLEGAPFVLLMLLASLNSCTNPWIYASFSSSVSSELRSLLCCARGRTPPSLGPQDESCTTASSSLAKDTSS
- TEST DETAILS: Agonist activity at human vasopressin V2 receptor expressed in HEK293 cells assessed as increase in intracellular cAMP level by CRE-luciferase reporter gene assay
pEC50: −log10 of the molar value.
VALUE KIND: pEC50

MOLECULE: O=C(NCc1ccc(C(=O)N2CCCCc3ccccc32)c(Cl)c1)Nc1c(F)cccc1F
pEC50: 7.40
--
MOLECULE: Cc1cc(C(=O)N2CCCCc3ccccc32)ccc1CNC(=O)Nc1ccccc1
pEC50: 6.89
--
MOLECULE: Cc1cc(C(=O)N2CCCOc3ccccc32)ccc1CNC(=O)N1CCC[C@H]1C(=O)N(C)C
pEC50: 6.00
--
MOLECULE: Cc1cc(C(=O)N2CCCCc3ccccc32)ccc1CNC(=O)N1CCC[C@H]1C(=O)O
pEC50: 6.17
--
MOLECULE: Cc1cc(C(=O)N2CCCCc3ccccc32)ccc1CNC(=O)N1CCC[C@@H]1C(=O)N(C)C
pEC50: 6.42

I: CCN(CC)C(=O)[C@@H]1CCCN1C(=O)NCc1ccc(C(=O)N2CCCCc3ccccc32)cc1C
II: Cc1cc(C(=O)N2Cc3cccn3Cc3ccccc32)ccc1CNC(=O)N1CCC[C@H]1C(=O)N(C)C
III: Cc1cc(C(=O)N2CCCCc3ccccc32)ccc1CNC(=O)N1CCC[C@H]1C(=O)OC(C)C
IV: Cc1cc(C(=O)N2CCCCc3ccccc32)ccc1CNC(=O)N1CCC[C@H]1C(=O)N(C)C [FEDOVAPAGON]
-- ask Reorder the items by pEC50, least to greatest. Note for the reader: the ranking is given by listing the labels in the order requested.
-- reply III, I, II, IV
